Data credit: patent US20250154277A1

Target: T1, human 5T4-His protein (human, UniProt Q13641 32-355)
T1 construct: also called recombinant 5T4 protein (human 5T4-his tag); human 5T4 protein; not shown: His tag
T1 sequence (looked up): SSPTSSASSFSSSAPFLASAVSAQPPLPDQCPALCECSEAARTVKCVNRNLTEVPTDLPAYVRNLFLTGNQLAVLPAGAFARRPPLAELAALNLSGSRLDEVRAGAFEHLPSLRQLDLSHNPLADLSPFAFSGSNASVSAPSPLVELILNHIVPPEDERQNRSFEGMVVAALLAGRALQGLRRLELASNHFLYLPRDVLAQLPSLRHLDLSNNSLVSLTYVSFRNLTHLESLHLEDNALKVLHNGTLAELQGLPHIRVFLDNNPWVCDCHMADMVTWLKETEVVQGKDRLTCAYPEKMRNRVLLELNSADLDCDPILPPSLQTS
Experiment: ELISA, coated 5T4-His
Recorded pEC50 values for a group of binders are listed next.
Scale: pEC50 equals -log10([C]), with [C] in mol/L.

393E9_hVH1_hVL5 (antibody, V domains shown, humanized) VH: EVQLVESGGGLVQPGGSLRLSCAASGFTFTDYYMSWVRQAPGKGLEWVGFIRNKGNGYTTENSASVKGRFTISRDNSKSTLYLQMNSLRAEDTAVYYCARYRGNPHYAMDYWGQGTLVTVSS VL: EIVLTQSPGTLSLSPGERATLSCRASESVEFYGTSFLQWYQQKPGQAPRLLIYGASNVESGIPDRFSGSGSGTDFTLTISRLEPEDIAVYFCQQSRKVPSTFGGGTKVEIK    9.89
393E9_hVH4_hVL4 (antibody, V domains shown, humanized) VH: EVQLVESGGGLVQPGGSLRLSCAASGFTFTDYYMSWVRQAPGKGLEWVGFIRNKGNGYTTENSASVKGRFTISRDNSKSSLYLQMNSLKTEDTAVYYCARYRGNPHYAMDYWGQGTLVTVSS VL: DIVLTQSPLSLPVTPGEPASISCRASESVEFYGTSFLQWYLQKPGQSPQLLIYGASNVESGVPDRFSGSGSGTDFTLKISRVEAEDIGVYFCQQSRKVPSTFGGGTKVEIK    9.80
393E9_hVH5_hVL3 (antibody, V domains shown, humanized; also called Hu393E9-53) VH: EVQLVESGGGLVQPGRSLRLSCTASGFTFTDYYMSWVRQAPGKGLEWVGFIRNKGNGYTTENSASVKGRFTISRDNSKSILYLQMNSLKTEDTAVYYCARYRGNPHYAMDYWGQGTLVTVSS VL: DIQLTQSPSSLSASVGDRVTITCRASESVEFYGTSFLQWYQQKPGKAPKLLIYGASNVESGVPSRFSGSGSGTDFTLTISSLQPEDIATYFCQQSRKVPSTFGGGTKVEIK    9.92
393E9_hVH2_hVL1 (antibody, V domains shown, humanized) VH: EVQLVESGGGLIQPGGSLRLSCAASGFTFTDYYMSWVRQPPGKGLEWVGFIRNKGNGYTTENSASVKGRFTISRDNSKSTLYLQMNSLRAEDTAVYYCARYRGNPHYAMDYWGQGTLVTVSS VL: DIVLTQSPDSLAVSLGERATINCRASESVEFYGTSFLQWYQQKPGQPPKLLIYGASNVESGVPDRFSGSGSGTDFTLTISSLQAEDIAVYFCQQSRKVPSTFGGGTKVEIK    9.77
393E9_hVH2_hVL3 (antibody, V domains shown, humanized) VH: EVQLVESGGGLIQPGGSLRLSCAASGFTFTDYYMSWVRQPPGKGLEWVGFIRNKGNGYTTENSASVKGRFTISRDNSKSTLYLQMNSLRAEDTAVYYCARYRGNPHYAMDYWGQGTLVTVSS VL: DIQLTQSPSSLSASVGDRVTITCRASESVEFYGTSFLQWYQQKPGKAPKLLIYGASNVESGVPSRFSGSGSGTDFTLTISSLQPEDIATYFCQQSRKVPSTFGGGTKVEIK    9.96

# input for lookup
Report pEC50 for 393E9_hVH1_hVL4 (antibody, V domains shown, humanized) VH: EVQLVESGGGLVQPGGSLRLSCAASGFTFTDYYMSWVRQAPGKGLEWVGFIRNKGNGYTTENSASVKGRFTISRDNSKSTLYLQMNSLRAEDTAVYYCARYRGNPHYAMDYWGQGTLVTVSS VL: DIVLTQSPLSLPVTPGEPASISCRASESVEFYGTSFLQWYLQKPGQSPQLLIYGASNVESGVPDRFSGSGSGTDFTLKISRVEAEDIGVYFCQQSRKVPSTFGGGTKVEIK please.
9.89
